test system: HCT-116 colon; experiment: NCI tumour cell line growth inhibition, 48 h
Could you please report measured TGI for the items listed next?

TGI in this record for `COc1ccc2[nH]c(C(=O)OCc3ccc4cccc(O)c4n3)cc2c1` : 1.85 µM

So, C#CC(O)/C=C/C(O)CCCC(O)CC#CC(O)C#CCCCCC(O)/C=C/CCCC(O)/C=C/CCCCCCCCCCCCCC(O)C(O)C#CC(=O)O (stereo unspecified) ? Its TGI was > 25 µM

Reported TGI ( `COC(=O)CC(=O)NCC1=CCC(=O)CC1` ) = > 100 µM

Value of measured TGI for the entry COc1ccc(-c2nsc3c2NC(=O)CC3c2cccc(Cl)c2)cc1 (stereo unspecified) : > 100 µM

Per the record, CC12OC(C(=O)C13CCC3)C1C(=O)c3ccc4c(ccc5ccccc54)c3C(=O)C12 (stereo unspecified) has TGI of 24.8 µM

What the record says about OC12c3ccccc3C1CCCCCC21OCCCO1 (stereo unspecified) : TGI is > 100 µM

For CCOC(=O)C1=C(C(=O)OCC)C2(c3ccccc3)N(O1)c1ccccc1C2(C)C (stereo unspecified) the molecule record lists TGI as > 100 µM

For record `O=C1NC(=Nc2ccccc2)C(=Nc2ccccc2)N1c1ccccc1` the listed TGI is 32.3 µM

# TGI of COc1cc(S(=O)(=O)Nc2ccc(-c3csc(N4C(=O)C(Cl)C4c4cccs4)n3)cc2)ccc1Cl (stereo unspecified) = > 100 µM

Recorded result, `C[C@H](NC(=O)c1c(C(F)F)nn(C)c1Oc1cccc(C(F)(F)F)c1)c1ccc(C(=O)O)cc1` , TGI: > 100 µM

Input `CCOC(=O)C#Cc1c(C(=O)OCC)nnn1[C@@H]1O[C@H](CO)[C@H]2OC3(CCCCC3)O[C@H]21` . Output TGI: 3.48 µM

Looking up `C1CC2=C(C1)C1=S(S2)SC2=C1CCC2` , I found its TGI recorded as > 100 µM

Just so you know, measured TGI for `CC(C)(C)c1nc(-c2cccc(NS(=O)(=O)c3c(F)cccc3F)c2F)c(-c2ccnc(N)n2)s1` came out at > 100 µM

Lookup result for `COc1ccc2c(c1)CCc1c(CO)c(COC(=O)NC(C)C)n(C)c1-2` ; measured TGI: 11.6 µM

Reported TGI of CC[C@@H](O)C[C@H]1CCC[C@@]2(C[C@@H]3OC(=O)/C=C/[C@@](C)(O)[C@@H](O)[C@H](C)[C@@H](O)[C@H](OC4CCC(N(C)C)C(C)O4)[C@@H](O)[C@](C)(O)CCCCC/C=C/[C@@H]4CC(C)(C)O[C@@]4(O)C[C@H](O2)[C@H]3C)O1 (stereo partly specified) : 26.2 µM

Query `Cc1cc(C)nc(NS(=O)(=O)c2ccc(NC(=O)c3cc([N+](=O)[O-])cc([N+](=O)[O-])c3)cc2)n1` yields TGI of > 100 µM

Entry `O=C(c1ccco1)N(C(=S)N1CCN(c2ccccn2)CC1)c1ccccc1` — recorded TGI = > 100 µM

Recorded result, `C=CC[C@]1(C2=NC(C)(C)CO2)c2ccccc2-c2ccccc2[C@H]1C(C)=O` , TGI: 20.2 µM

Given item `O=C1NC(=Nc2ccccc2Cl)N/C1=C\c1ccc(Cl)cc1Cl` , the value recorded as its TGI is > 100 µM

The reported TGI of the molecule C=C(C)C(=O)OC1C[C@H](COC(C)=O)C2CC=C(CO)C2C2OC(=O)C(=C)[C@H]12 (stereo partly specified) was 38.2 µM

Per the record, `C[n+]1ccccc1/C1=c2\cc/c([nH]2)=C(\c2cccc[n+]2C)C2=N/C(=C(/c3cccc[n+]3C)C3C=CC(N3)/C(c3cccc[n+]3C)=C3/C=CC1=N3)C=C2` has TGI of > 100 µM

Lab note: measured TGI of `O=c1c2c3c(sc2nc2n1N=CN(c1ccc(F)cc1)C2)CCCC3` was > 100 µM

Short answer for CC(=O)NC1C(OCc2ccccc2)OC(CO)C(O)C1OCC(=O)N[C@@H](C)C(=O)N[C@H](CCC(=O)NCCNc1ccc([N+](=O)[O-])c2[nH]c3ccccc3c(=O)c12)C(N)=O (stereo partly specified) : TGI was > 100 µM

Just so you know, measured TGI for `Cn1cncc1-c1c(F)cncc1NC(=O)c1c(N)nn2cc(F)cnc12` came out at 16.3 µM

Just so you know, measured TGI for CCOC(=O)C1(C(=O)OCC)C=C(c2ccccc2)N(C2OC(COC(C)=O)C(OC(C)=O)C(OC(C)=O)C2OC(C)=O)C1=S (stereo unspecified) came out at > 100 µM

Documented TGI of `Cc1nc(Nc2ccc(Cl)c(Cl)c2)sc1C(=O)/C=C/c1ccc2c(c1)OCO2` : 49.4 µM
